assay: Pharmacokinetics of S807 in rats, single iv or oral dose; format: in vivo, Sprague-Dawley rats; conditions: female, Sprague-Dawley, rat, plasma, po, 20 mg/kg
property measured: Cmax (ng/mL)
Numbers only, in ng/mL.

Memo: CCCC(CCC)NC(=O)c1ccc2c(c1)OCO2 , reported Cmax: 187

---

test: Toxicokinetics of S9229 in the 28-day rat study; format: in vivo, Sprague-Dawley rats; settings: female, Sprague-Dawley (Crl:CD(SD)), rat, plasma, po, 30 mg/kg, t1/2, Day 1, 30 mg/kg bw, F
property measured: half-life (min)
Answers are plain numbers, in min.

Memo: COC[C@@H](CC(C)C)NC(=O)c1ccc(C)c(C)c1 , reported half-life: 57
